Exercise: for every item that follows, state its recorded OD450.
molecular target: T1, human MSLN-hFc protein (Acro, Cat. No. MSN-H5253) (human, UniProt Q13421 296-580); experiment: ELISA on coated antigen, antibody 0.001 nM
T1 construct: the method names the coated protein as human MSLN-hFc (Acro); also called human MSLN full-length protein
T1 sequence (Q13421 other isoform, or with tags, fused parts or gaps limits assumed): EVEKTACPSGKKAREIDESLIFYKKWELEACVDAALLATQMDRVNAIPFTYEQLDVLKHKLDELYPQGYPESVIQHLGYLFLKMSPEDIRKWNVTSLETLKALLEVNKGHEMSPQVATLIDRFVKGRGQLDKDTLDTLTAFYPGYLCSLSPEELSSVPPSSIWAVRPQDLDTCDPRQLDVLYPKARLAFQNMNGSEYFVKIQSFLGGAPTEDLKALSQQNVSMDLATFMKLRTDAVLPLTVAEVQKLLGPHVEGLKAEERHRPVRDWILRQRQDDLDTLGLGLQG
# output: bare number, implied unit OD450

// OD450 value for F7.44.20-H16 (scFv, not shown: small tags and cut ends, also called S009-F7.44.20 humanized antibody VH2a + VL4) scFv: EVQLVQSGAEVKKPGASVKVSCKASGYTFTDYNMDWVRQAPGQGLEWMGDINPSTGGTIYNQKFSGRVTMTEDKSASTVYMELSSLRSEDTAVYYCARRRIGTGYFDVWGQGTTVTVSSGGGGSGGGGSGGGGSEIVLTQSPATLSLSPGERATLSCSASSSVISSYLSWYQQKPGSSPRLLIYRTSNLASGIPARFSGSGSGTDYTLTISSLEPEDFAVYYCHQWSSFPYTFGGGTKVEIK : 0.05

// OD450 value for F7.44.20-H7 (scFv, not shown: small tags and cut ends, also called S009-F7.44.20 humanized antibody VH1a + VL3) scFv: EVQLVQSGAEVKKPGASVKVSCKASGYTFTDYNMDWVRQAPGQGLEWMGDINPSTGGTIYNQKFQGRVTMTEDKSTSTVYMELSSLRSEDTAVYYCARRRIGTGYFDVWGQGTTVTVSSGGGGSGGGGSGGGGSEIVLTQSPATLSLSPGERATLSCSASSSVISSYLSWYQQKPGQSPRLLIYRTSNLASGIPARFSGSGSGTDYTLTISSLEPEDFAVYYCHQWSSFPYTFGGGTKVEIK : 0.04
